target: Potassium voltage-gated channel subfamily KQT member 2 (Rattus norvegicus); assay: rat KCNQ2 potassium channel inhibitors, primary screen, cell-based, CHO-K1, FluxOR thallium flux, B-score (AID 2156); settings: 20 min, at 10 µM
About 3,400 (1.1%) of roughly 310,000 compounds were called active.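 How the source made its calls: active means fluorescence ratio B-score at most minus 3 library SDs, with starting brightness B-score within 2 library SDs (cut at about -5.5 in these data); inactive means the rest, inconclusive results apart.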 The full list was thinned out, with actives kept by preference.
Labels: YES (active), NO (inactive)

Cc1c(NC(=O)C(C)OC(=O)c2c3c(nc4ccccc24)CCC(C)C3)c(=O)n(-c2ccccc2)n1C (configuration not stated)	NO
CC1=CC(C)(C)Nc2ccc(OC(=O)CN3C(=O)C4CCCCC4C3=O)cc21 (configuration not stated)	NO
COc1ccc(Cl)cc1NS(=O)(=O)c1cccc(C(=O)NC2CCC(O)CC2)c1 (configuration not stated)	NO
C=CCOc1ccc(/C=C/C(=O)OCC(=O)NCC2CCCO2)cc1 (configuration not stated)	NO
COc1ccc(NC(=O)CN(C)C(=O)CC2CCCCC2)cc1	NO
CNS(=O)(=O)c1cccc(C(=O)NCC2CCCCC2)c1	NO
COc1ccccc1-n1ccnc(SCC(=O)NC2CCCCC2)c1=O	NO
COc1cc(NC(=O)CSC(=S)N2CCCC2)c(OC)cc1Cl	NO
Cc1ccc(C(=O)c2c(NC(=O)c3ccccc3)sc(C)c2C)cc1	YES
CN(C(=O)CN1C(=O)NC(C)(CCc2ccccc2)C1=O)c1ccccc1 (configuration not stated)	NO
COC(=O)c1ccc(C(NC(=O)OCc2ccccc2)/C(F)=C/[C@@H](C)C(=O)O)cc1 (some centres not stated)	NO
CCC/C=C(\CCC)C(NC(=O)Cc1ccccc1)c1ccc(C(=O)OC)cc1 (configuration not stated)	YES
CCOC(=O)N1CCN(C(=O)c2nn(-c3ccc(C)cc3)c(=O)c3c2c2ccccc2n3C)CC1	NO
O=C(c1ccccc1Oc1ccccc1)N1CCN(c2ccc(F)cc2)CC1	NO
Cc1sc(NC(=O)c2ccc3ncsc3c2)c(C(N)=O)c1C	NO
COc1ccc(C(=O)CN2C(=O)NC3(CCc4ccccc43)C2=O)c(OC)c1 (configuration not stated)	NO
CCCCCCOc1ccc(OC(=O)c2cccnc2)cc1	NO
CC(C)(C)N1CC(c2nc3ccccc3n2Cc2ccc(F)cc2)CC1=O (configuration not stated)	YES
CC(C(=O)NCC1CCCCC1)N(C)Cc1cccc(Cl)c1 (configuration not stated)	YES
Cc1ccc(S(=O)(=O)N2CCC(C(=O)NCCC3=CCCCC3)CC2)cc1C	NO
Cc1ccc(S(=O)(=O)N2CCN(C(=O)c3ccc(-n4cncn4)c([N+](=O)[O-])c3)CC2)cc1	NO
OCCCNc1nc(-c2ccccc2)c2cc(Cl)ccc2n1	NO
